# PROCEDURE SUMMARY: Binding affinity to 5'-biotin labeled c-myc promoter i-motif DNA Py33 (unknown origin) by surface plasmon resonance method
pKd: −log10 of the molar value.
MEASURED PARAMETER: pKd

q: Given the molecule CN(CCCNc1c2ccccc2nc2ccccc12)CCCNc1c2ccccc2nc2ccccc12 , what is its reported pKd?
a: 5.04

q: Repeat for the following molecule: COC(=O)c1ccc2nc3ccc(C)cc3c(NCCCNCCNCCCNc3c4cc(C)ccc4nc4ccc(C(=O)OC)cc34)c2c1
a: 5.42

(I) c1ccc2c(NCCOCCOCCNc3c4ccccc4nc4ccccc34)c3ccccc3nc2c1
(II) Cc1ccc2nc3ccc(C(=O)NCCCN(C)C)cc3c(NCCOCCOCCNc3c4cc(C)ccc4nc4ccc(C(=O)NCCCN(C)C)cc34)c2c1
(III) Cc1ccc2nc3ccccc3c(NCCCCCCNc3c4ccccc4nc4ccc(C)cc34)c2c1
(IV) Cc1ccc2nc3ccc(C)cc3c(NCCCNCCNCCCNc3c4cc(C)ccc4nc4ccc(C)cc34)c2c1
q: Your job: order these 4 records by pKd, ascending. Show the ranking through the labels, in the order asked for.
a: III, I, II, IV
(III: 4.60, I: 4.80, II: 5.07, IV: 5.62)

###

# PROCEDURE SUMMARY: Stabilization of 5'-FAM/3'-TAMRA labeled c-myc promoter i-motif DNA FPy33T (unknown origin) assessed as change in melting temperature at 1 uM by FRET assay (reference value: 53.2 degreeC)
MEASURED PARAMETER: ΔTm (°C)

Recorded results for 4 compounds are shown here.
q: Given the compound Cc1ccc2nc3ccc(C)cc3c(NCCCNCCNCCCNc3c4cc(C)ccc4nc4ccc(C)cc34)c2c1 , what is its reported ΔTm?
a: 11

q: Repeat for the following compound: c1ccc2c(NCCCCCCCNc3c4ccccc4nc4ccccc34)c3ccccc3nc2c1
a: 0.6

q: Repeat for the following compound: Cc1ccc2nc3ccc(C(=O)NCCCN(C)C)cc3c(NCCOCCOCCNc3c4cc(C)ccc4nc4ccc(C(=O)NCCCN(C)C)cc34)c2c1
a: 27.4

q: Repeat for the following compound: Cc1ccc2nc3ccccc3c(NCCCCCCNc3c4ccccc4nc4ccc(C)cc34)c2c1
a: 1.2

(P) c1ccc2c(NCCNCCNc3c4ccccc4nc4ccccc34)c3ccccc3nc2c1
(Q) Cc1ccc2nc3ccc(C)cc3c(NCCCCCCNc3c4cc(C)ccc4nc4ccc(C)cc34)c2c1
q: Looking at recorded values for ΔTm, does P or Q come in lower? Your choice should be expressed through its label.
a: P
(P: 0.7 °C, Q: 10.1 °C)

###

# TESTED ON: dsDNA
# PROCEDURE SUMMARY: Binding affinity to 5'-biotin labeled duplex DNA (unknown origin) by surface plasmon resonance method
pKd: −log10 of the molar value.
MEASURED PARAMETER: pKd

q: Given the molecule Cc1ccc2nc3ccc(C)cc3c(NCCN(C)C)c2c1 , what is its reported pKd?
a: 4.88

q: Repeat for the following molecule: Cc1ccc2nc3ccc(C)cc3c(NCCOCCOCCNc3c4cc(C)ccc4nc4ccc(C)cc34)c2c1
a: 4.66

q: Repeat for the following molecule: COC(=O)c1ccc2nc3ccc(C)cc3c(NCCCNCCNCCCNc3c4cc(C)ccc4nc4ccc(C(=O)OC)cc34)c2c1
a: 4.93

(a) c1ccc2c(NCCNCCNc3c4ccccc4nc4ccccc34)c3ccccc3nc2c1
(b) Cc1ccc2nc3ccccc3c(NCCCN(C)CCCNc3c4ccccc4nc4ccc(C)cc34)c2c1
q: Which of the two gives a bigger number for pKd: a or b ? Your choice should be expressed through its label.
a: a

###

# PROCEDURE SUMMARY: Stabilization of 5'-FAM/3'-TAMRA labeled hairpin DNA F10T (unknown origin) assessed as change in melting temperature at 1 uM by FRET assay (reference value: 59.1 degreeC)
MEASURED PARAMETER: ΔTm (°C)

q: Given the molecule Cc1ccc2nc3ccccc3c(NCCCCCCCNc3c4ccccc4nc4ccc(C)cc34)c2c1 , what is its reported ΔTm?
a: 3.6

(a) Cc1ccc2nc3ccccc3c(NCCOCCOCCNc3c4ccccc4nc4ccc(C)cc34)c2c1
(b) Cc1ccc2nc3ccccc3c(NCCCN(C)CCCNc3c4ccccc4nc4ccc(C)cc34)c2c1
(c) Cc1ccc2nc3ccc(C)cc3c(NCCCCCCCNc3c4cc(C)ccc4nc4ccc(C)cc34)c2c1
q: Your job: order these 3 records by ΔTm, ascending. Show the ranking through the labels, in the order asked for.
a: c, a, b

(a) Cc1ccc2nc3ccc(C(=O)NCCCN(C)C)cc3c(NCCCNCCNCCCNc3c4cc(C)ccc4nc4ccc(C(=O)NCCCN(C)C)cc34)c2c1
(b) Cc1ccc2nc3ccc(C)cc3c(NCCN(C)C)c2c1
q: Looking at recorded values for ΔTm, does a or b come in lower? Your choice should be expressed through its label.
a: a
(a: 2.8 °C, b: 4.1 °C)

###

# System: SiHa
# PROCEDURE SUMMARY: Antiproliferative activity against human SiHa cells after 48 hrs by MTT assay
# Type: functional, cell-based
MEASURED PARAMETER: IC50 (µM)
Numeric answer only, unit µM assumed.

Recorded results for 3 compounds are shown here.
q: Given the compound Cc1ccc2nc3ccc(C)cc3c(NCCCN(C)CCCNc3c4cc(C)ccc4nc4ccc(C)cc34)c2c1 , what is its reported IC50?
a: 0.37

q: Repeat for the following compound: Cc1ccc2nc3ccc(C)cc3c(NCCOCCOCCNc3c4cc(C)ccc4nc4ccc(C)cc34)c2c1
a: 0.56

q: Repeat for the following compound: c1ccc2c(NCCCNc3c4ccccc4nc4ccccc34)c3ccccc3nc2c1
a: 3.06

Next:
q: Given the compound CN(CCCNc1c2ccccc2nc2ccccc12)CCCNc1c2ccccc2nc2ccccc12 , what is its reported IC50?
a: 2.51

q: Repeat for the following compound: c1ccc2c(NCCOCCOCCNc3c4ccccc4nc4ccccc34)c3ccccc3nc2c1
a: 2.26

###

# TESTED ON: dsDNA
# PROCEDURE SUMMARY: Binding affinity to 5'-biotin labeled duplex DNA (unknown origin) by surface plasmon resonance method
pKd: −log10 of the molar value.
MEASURED PARAMETER: pKd

Recorded results for 5 molecules are shown here.
q: Given the molecule Cc1ccc2nc3ccccc3c(NCCOCCOCCNc3c4ccccc4nc4ccc(C)cc34)c2c1 , what is its reported pKd?
a: 4.48

q: Repeat for the following molecule: Cc1ccc2nc3ccc(C(=O)NCCCN(C)C)cc3c(NCCOCCOCCNc3c4cc(C)ccc4nc4ccc(C(=O)NCCCN(C)C)cc34)c2c1
a: 4.76

q: Repeat for the following molecule: Cc1ccc2nc3ccc(C)cc3c(NCCCNCCNCCCNc3c4cc(C)ccc4nc4ccc(C)cc34)c2c1
a: 4.73

q: Repeat for the following molecule: COC(=O)c1ccc2nc3ccc(C)cc3c(NCCOCCOCCNc3c4cc(C)ccc4nc4ccc(C(=O)OC)cc34)c2c1
a: 4.90

q: Repeat for the following molecule: Cc1ccc2nc3ccc(C(=O)NCCCN(C)C)cc3c(NCCCNCCNCCCNc3c4cc(C)ccc4nc4ccc(C(=O)NCCCN(C)C)cc34)c2c1
a: 4.66

(a) c1ccc2c(NCCCCCCCNc3c4ccccc4nc4ccccc34)c3ccccc3nc2c1
(b) Cc1ccc2nc3ccc(C)cc3c(NCCCNc3c4cc(C)ccc4nc4ccc(C)cc34)c2c1
q: Which of the two gives a bigger number for pKd: a or b ? Your choice should be expressed through its label.
a: a

###

# TESTED ON: Quadruplex DNA
# PROCEDURE SUMMARY: Binding affinity to 5'-biotin labeled c-myc promoter G-quadruplex DNA Pu27 (unknown origin) by surface plasmon resonance method
# Type: nucleic-acid assay
pKd: −log10 of the molar value.
MEASURED PARAMETER: pKd

Recorded results for 6 compounds are shown here.
q: Given the compound Cc1ccc2nc3ccc(C)cc3c(NCCCNc3c4cc(C)ccc4nc4ccc(C)cc34)c2c1 , what is its reported pKd?
a: 5.04

q: Repeat for the following compound: COC(=O)c1ccc2nc3ccc(C)cc3c(NCCOCCOCCNc3c4cc(C)ccc4nc4ccc(C(=O)OC)cc34)c2c1
a: 5.85

q: Repeat for the following compound: Cc1ccc2nc3ccc(C)cc3c(NCCCN(C)CCCNc3c4cc(C)ccc4nc4ccc(C)cc34)c2c1
a: 5.26

q: Repeat for the following compound: c1ccc2c(NCCOCCOCCNc3c4ccccc4nc4ccccc34)c3ccccc3nc2c1
a: 5.03

q: Repeat for the following compound: Cc1ccc2nc3ccc(C)cc3c(NCCCNCCNCCCNc3c4cc(C)ccc4nc4ccc(C)cc34)c2c1
a: 5.11

q: Repeat for the following compound: COC(=O)c1ccc2nc3ccc(C)cc3c(NCCCNCCNCCCNc3c4cc(C)ccc4nc4ccc(C(=O)OC)cc34)c2c1
a: 5.54

(I) Cc1ccc2nc3ccccc3c(NCCCCCNc3c4ccccc4nc4ccc(C)cc34)c2c1
(II) Cc1ccc2nc3ccc(C)cc3c(NCCCCCCNc3c4cc(C)ccc4nc4ccc(C)cc34)c2c1
q: Looking at recorded values for pKd, does I or II come in lower? Your choice should be expressed through its label.
a: I
(I: 4.79, II: 5.96)

Where these numbers come from: ChEMBL document CHEMBL4725346
